Listing: ADCC cytotoxic activity (51Cr release) on FaDu of selected binders
Molecular target: T1, CAPRIN-1 protein expressed on the membrane surface of human cancer cells (human, UniProt Q14444 2-709)
T1 sequence (looked up): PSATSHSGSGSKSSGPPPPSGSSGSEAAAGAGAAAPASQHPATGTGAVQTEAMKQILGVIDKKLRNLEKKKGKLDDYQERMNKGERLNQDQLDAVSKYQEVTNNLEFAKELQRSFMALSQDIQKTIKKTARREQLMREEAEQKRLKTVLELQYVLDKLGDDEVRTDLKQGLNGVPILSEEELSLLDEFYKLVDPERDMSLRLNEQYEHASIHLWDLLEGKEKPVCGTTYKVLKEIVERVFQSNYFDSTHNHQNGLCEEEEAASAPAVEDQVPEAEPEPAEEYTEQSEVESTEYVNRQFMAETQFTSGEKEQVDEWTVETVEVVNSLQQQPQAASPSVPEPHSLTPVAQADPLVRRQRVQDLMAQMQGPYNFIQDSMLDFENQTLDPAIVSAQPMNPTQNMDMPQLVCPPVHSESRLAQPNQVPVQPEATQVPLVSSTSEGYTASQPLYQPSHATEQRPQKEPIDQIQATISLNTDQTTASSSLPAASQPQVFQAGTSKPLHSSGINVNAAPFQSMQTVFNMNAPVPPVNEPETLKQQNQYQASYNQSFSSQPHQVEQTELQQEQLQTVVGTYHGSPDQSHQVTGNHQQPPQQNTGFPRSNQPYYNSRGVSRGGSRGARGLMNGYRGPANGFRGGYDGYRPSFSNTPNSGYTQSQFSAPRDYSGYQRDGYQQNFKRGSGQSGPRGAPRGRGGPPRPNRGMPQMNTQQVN
Experiment: cell-based or functional assay

Examples with answers:
binder | result_value
humanized antibody #2 (antibody, V domains shown) VH: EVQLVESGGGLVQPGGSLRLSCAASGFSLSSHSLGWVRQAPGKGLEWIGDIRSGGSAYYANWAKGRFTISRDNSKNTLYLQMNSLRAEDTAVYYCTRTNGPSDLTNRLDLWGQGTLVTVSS VL: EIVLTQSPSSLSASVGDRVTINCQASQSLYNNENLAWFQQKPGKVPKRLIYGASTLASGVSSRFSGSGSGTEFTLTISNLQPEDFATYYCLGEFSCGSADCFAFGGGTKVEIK | ≥ 40%
humanized antibody #6 (antibody, V domains shown) VH: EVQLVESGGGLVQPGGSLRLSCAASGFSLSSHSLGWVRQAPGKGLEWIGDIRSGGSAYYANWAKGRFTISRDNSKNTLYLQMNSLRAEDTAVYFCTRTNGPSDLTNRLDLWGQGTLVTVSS VL: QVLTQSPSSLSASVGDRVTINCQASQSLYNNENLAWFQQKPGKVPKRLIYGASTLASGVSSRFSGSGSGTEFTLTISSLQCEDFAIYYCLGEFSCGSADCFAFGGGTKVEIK | ≥ 50%
human-rabbit chimeric anti-CAPRIN-1 antibody (antibody, V domains shown) VH: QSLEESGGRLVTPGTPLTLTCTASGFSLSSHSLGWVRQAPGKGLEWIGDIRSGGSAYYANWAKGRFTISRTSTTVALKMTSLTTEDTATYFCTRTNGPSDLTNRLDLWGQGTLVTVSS VL: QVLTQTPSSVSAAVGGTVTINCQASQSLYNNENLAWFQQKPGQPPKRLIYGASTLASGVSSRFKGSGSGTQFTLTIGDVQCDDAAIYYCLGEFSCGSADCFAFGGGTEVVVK | ≥ 35%
humanized antibody #0 (antibody, V domains shown) VH: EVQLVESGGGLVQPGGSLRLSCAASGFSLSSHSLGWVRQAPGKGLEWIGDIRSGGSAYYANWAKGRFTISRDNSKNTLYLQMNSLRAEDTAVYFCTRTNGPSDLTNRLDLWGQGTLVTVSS VL: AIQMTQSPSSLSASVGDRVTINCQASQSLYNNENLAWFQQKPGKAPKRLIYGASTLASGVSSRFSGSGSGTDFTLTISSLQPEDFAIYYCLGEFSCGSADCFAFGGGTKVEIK | ≥ 35%

Query: For humanized antibody #10 (antibody, V domains shown) VH: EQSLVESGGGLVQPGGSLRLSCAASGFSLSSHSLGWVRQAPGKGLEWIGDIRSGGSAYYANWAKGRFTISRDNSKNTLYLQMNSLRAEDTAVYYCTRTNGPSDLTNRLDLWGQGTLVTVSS VL: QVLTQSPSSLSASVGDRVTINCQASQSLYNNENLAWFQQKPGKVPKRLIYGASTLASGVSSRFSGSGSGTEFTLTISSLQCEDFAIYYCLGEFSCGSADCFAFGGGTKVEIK , write its ADCC cytotoxic activity (51Cr release) on FaDu.
Result: ≥ 50%
